System: Abutilon theophrasti (ABUTH)
Test: Post-emergence herbicidal action against ABUTH
Type: in vivo
Conditions: 80 g/ha, visual rating about 3 weeks after treatment vs untreated controls (100% = plants have died, 0% = like control plants)
Method: Seeds of monocotyledonous and dicotyledonous weeds and crop plants are placed in sandy loam in plastic or organic planting pots, covered with soil and cultivated in a greenhouse under controlled growth conditions. 2 to 3 weeks after sowing, the test plants are treated at the one-leaf stage. […]
measured_property: Post-emergence action against ABUTH in %

>>> print(df.to_string())
                                    compound  meas_value
 0  CCOC(=O)[C@@H](C)Oc1nn(-c2ncccc2F)c(-c2cncc(F)c2)c1Cl         90%
 1  COCCOC(=O)[C@@H](C)Oc1nn(-c2ncccc2F)c(-c2ccc(F)nc2)c1Br         90%
 2  O=C(COc1nn(-c2ncccc2F)c(-c2ccc(F)nc2)c1C1CC1)OCC(F)(F)F         80%
 3  CCOC(=O)COc1nn(-c2ccccn2)c(-c2ccc(F)nc2)c1Br         90%
 4  COC(=O)CNC(=O)[C@@H](C)Oc1nn(-c2ccccn2)c(-c2ccc(F)nc2)c1Cl         80%
 5  CC(C)=NOC(=O)[C@@H](C)Oc1nn(-c2ncccc2F)c(-c2ccc(F)nc2)c1Br         80%
 6  COC(=O)COc1nn(-c2ncccc2Cl)c(-c2ccc(F)nc2)c1Br         80%
 7  C[C@@H](Oc1nn(-c2ncccc2F)c(-c2ccc(F)nc2)c1I)C(=O)O         80%
 8  COC(=O)CCOC(=O)[C@@H](C)Oc1nn(-c2ccccn2)c(-c2cncc(F)c2)c1Cl         80%
 9  CCOC(=O)COc1nn(-c2ncccc2F)c(-c2ccc(F)nc2)c1Br         90%
10  COC(=O)[C@@H](C)Oc1nn(-c2ccnc(Cl)c2)c(-c2ccc(F)nc2)c1Br         90%
11  CCOC(=O)COc1nn(-c2nc(F)ccc2F)c(-c2ccc(F)nc2)c1Cl         80%
12  COC(=O)CCOC(=O)COc1nn(-c2ccccn2)c(-c2cncc(F)c2)c1Cl         80%
13  O=C(O)CNC(=O)COc1nn(-c2ccccn2)c(-c2ccc(F)nc2)c1Cl         80%
14  Cc1cccnc1-n1nc(OCC(=O)O)c(Cl)c1-c1cncc(F)c1         80%
15  O=C(O)COc1nn(-c2ccccn2)c(-c2cncc(F)c2)c1Br         80%
16  CCOC(=O)CN(C)S(=O)(=O)NC(=O)COc1nn(-c2ccccn2)c(-c2ccc(F)nc2)c1Br         80%
17  COC(=O)[C@@H](C)Oc1nn(-c2ncccc2F)c(-c2cncc(F)c2)c1I         90%
18  COC(=O)COc1nn(-c2ncccc2F)c(-c2ccc(F)nc2)c1Br         80%
19  O=C(O)CSc1nn(-c2ccccn2)c(-c2cncc(Cl)c2)c1Br         80%
20  CCOC(=O)[C@@H](C)Oc1nn(-c2ncccc2F)c(-c2cncc(F)c2)c1Br         90%
21  COC(=O)[C@@H](C)NC(=O)COc1nn(-c2ccccn2)c(-c2ccnc(F)c2)c1Br         80%
22  CN(C)S(=O)(=O)NC(=O)COc1nn(-c2ncccc2F)c(-c2ccc(F)nc2)c1Br         80%
23  O=C(O)COc1nn(-c2ccccn2)c(-c2ccc(F)nc2)c1I         80%
24  C[C@@H](Oc1nn(-c2ccccn2)c(-c2cncc(F)c2)c1Br)C(=O)O         80%
25  COC(=O)C(C)NC(=O)[C@@H](C)Oc1nn(-c2ccccn2)c(-c2cncc(F)c2)c1Br (some centres unmarked)         80%
26  COC(=O)COc1nn(-c2ncccc2F)c(-c2cncc(F)c2)c1C1CC1         80%
27  CCOC(=O)[C@@H](C)Oc1nn(-c2ccccn2)c(-c2cncc(F)c2)c1Cl         80%
28  COC(=O)C(C)COC(=O)[C@@H](C)Oc1nn(-c2ccccn2)c(-c2cncc(F)c2)c1Cl (some centres unmarked)         80%
